Test system: Staphylococcus aureus
assay.name: Bactericidal activity against methicillin-resistant Staphylococcus aureus clinical isolate 1 after 24 hrs
Type: functional
stated.conditions: isolate 1, 24 h
Provide the recorded MBC for the entries that follow.
Reply numerically in µg/mL, unit not repeated.

Req: Determine from records and report MBC for `CCCCCCCC/C=C\CCCCCCCC(=O)NCCCN`
Resp: 16

Req: Determine from records and report MBC for `CCCCCCCCCCCC(=O)NCCN`
Resp: 1020

Req: Determine from records and report MBC for `CN[C@H](CC(C)C)C(=O)N[C@H]1C(=O)N[C@@H](CC(N)=O)C(=O)N[C@H]2C(=O)N[C@H]3C(=O)N[C@H](C(=O)N[C@H](C(=O)O)c4cc(O)cc(O)c4-c4cc3ccc4O)[C@H](O)c3ccc(c(Cl)c3)Oc3cc2cc(c3O[C@@H]2O[C@H](CO)[C@@H](O)[C@H](O)[C@H]2O[C@H]2C[C@](C)(N)[C@H](O)[C@H](C)O2)Oc2ccc(cc2Cl)[C@H]1O`
Resp: 1

Req: Determine from records and report MBC for `O=C(N[C@H](CO)[C@H](O)c1ccc([N+](=O)[O-])cc1)C(Cl)Cl`
Resp: 64

----------
Tested on: Staphylococcus aureus
assay.name: Bactericidal activity against methicillin-resistant Staphylococcus aureus clinical isolate 19 after 24 hrs
Assay type: functional
stated.conditions: isolate 19, 24 h
reported.metric: MBC (µg/mL)
Reply numerically in µg/mL, unit not repeated.

Req: Enter recorded MBC with Staphylococcus aureus for O=C(N[C@H](CO)[C@H](O)c1ccc([N+](=O)[O-])cc1)C(Cl)Cl [CHLORAMPHENICOL] here.
Resp: 128

Req: Enter recorded MBC with Staphylococcus aureus for CN[C@H](CC(C)C)C(=O)N[C@H]1C(=O)N[C@@H](CC(N)=O)C(=O)N[C@H]2C(=O)N[C@H]3C(=O)N[C@H](C(=O)N[C@H](C(=O)O)c4cc(O)cc(O)c4-c4cc3ccc4O)[C@H](O)c3ccc(c(Cl)c3)Oc3cc2cc(c3O[C@@H]2O[C@H](CO)[C@@H](O)[C@H](O)[C@H]2O[C@H]2C[C@](C)(N)[C@H](O)[C@H](C)O2)Oc2ccc(cc2Cl)[C@H]1O [VANCOMYCIN] here.
Resp: 0.5

Req: Enter recorded MBC with Staphylococcus aureus for `CCCCCCCC/C=C\CCCCCCCC(=O)NCCCN` here.
Resp: 4

Req: Enter recorded MBC with Staphylococcus aureus for `CCCCCCCCCCCC(=O)NCCN` here.
Resp: 128

----------
Tested on: Staphylococcus epidermidis
assay.name: Antimicrobial activity against Staphylococcus epidermidis ATCC 12228 by broth dilution method
Format: functional
reported.metric: log10(MIC) (log10 of the value in µg/mL)
A value of 2 here means MIC of 100 in µg/mL, since values are log10.

Req: Determine from records and report log10(MIC) for `O=C(N[C@H](CO)[C@H](O)c1ccc([N+](=O)[O-])cc1)C(Cl)Cl`
Resp: 1.51

Req: Determine from records and report log10(MIC) for `CCCCCCCC/C=C\CCCCCCCC(=O)NCCCN`
Resp: 0.00

Req: Determine from records and report log10(MIC) for `CCCCCCCCCCCCCC(=O)NCCCCN`
Resp: 1.20

Req: Determine from records and report log10(MIC) for `CCCCCCCCCCCCCC(=O)NCCN`
Resp: 1.20

Req: Determine from records and report log10(MIC) for `CCCCCCCCCCCCCCCC(=O)NCCCN`
Resp: 0.60

Req: Determine from records and report log10(MIC) for `CCCCCCCCCCCC(=O)NCCCN`
Resp: 1.51

Req: Determine from records and report log10(MIC) for `CCCCCCCCCCCCCCCC(=O)NCCCCN`
Resp: 1.20

Req: Determine from records and report log10(MIC) for `CCCCCCCC/C=C\CCCCCCCC(=O)NCCN`
Resp: 0.90

Req: Determine from records and report log10(MIC) for `CCCCCCCCCCCC(=O)NCCN`
Resp: 1.20

Req: Determine from records and report log10(MIC) for `CCCCCCCCCCCCCC(=O)NCCCN`
Resp: 3.01

Req: Determine from records and report log10(MIC) for `CCCCCCCC/C=C\CCCCCCCC(=O)NCCCCN`
Resp: 0.60

Req: Determine from records and report log10(MIC) for `CCCCCCCCCCCC(=O)NCCCCN`
Resp: 1.20

----------
Test system: Staphylococcus aureus
assay.name: Antimicrobial activity against Staphylococcus aureus ATCC 29213 by broth dilution method
Format: functional
reported.metric: MIC

Req: Determine from records and report MIC for `CCCCCCCCCCCC(=O)NCCCCN`
Resp: 64 µg/mL

Req: Determine from records and report MIC for `CCCCCCCCCCCCCCCC(=O)NCCCN`
Resp: > 1020 µg/mL

Req: Determine from records and report MIC for `CCCCCCCCCCCCCC(=O)NCCCCN`
Resp: 16 µg/mL

Req: Determine from records and report MIC for `CCCCCCCCCCCC(=O)NCCN`
Resp: 16 µg/mL

Req: Determine from records and report MIC for `CCCCCCCCCCCCCCCC(=O)NCCN`
Resp: > 1020 µg/mL

Req: Determine from records and report MIC for `CCCCCCCCCCCCCCCC(=O)NCCCCN`
Resp: 512 µg/mL

Req: Determine from records and report MIC for `CCCCCCCC/C=C\CCCCCCCC(=O)NCCN`
Resp: > 1020 µg/mL

Req: Determine from records and report MIC for `CCCCCCCCCCCC(=O)NCCCN`
Resp: 256 µg/mL

Req: Determine from records and report MIC for `CCCCCCCC/C=C\CCCCCCCC(=O)NCCCN`
Resp: 2 µg/mL

Req: Determine from records and report MIC for `CCCCCCCC/C=C\CCCCCCCC(=O)NCCCCN`
Resp: 16 µg/mL

Req: Determine from records and report MIC for `CCCCCCCCCCCCCC(=O)NCCN`
Resp: 8 µg/mL

Req: Determine from records and report MIC for `CCCCCCCCCCCCCC(=O)NCCCN`
Resp: > 1020 µg/mL

----------
Provide the recorded MIC for the entries that follow.
Test system: Candida albicans
assay.name: Antifungal activity against Candida albicans ATCC 18804 by broth microdilution method
Type: functional
Number plus unit, in that order.

Req: Enter recorded MIC with Candida albicans for `CCCCCCCCCCCC(=O)NCCCN` here.
Resp: 256 µg/mL

Req: Enter recorded MIC with Candida albicans for CCC(C)n1ncn(-c2ccc(N3CCN(c4ccc(OCC5COC(Cn6cncn6)(c6ccc(Cl)cc6Cl)O5)cc4)CC3)cc2)c1=O (stereo not drawn) here.
Resp: 0.5 µg/mL

Req: Enter recorded MIC with Candida albicans for `CCCCCCCCCCCCCCCC(=O)NCCN` here.
Resp: 4 µg/mL

Req: Enter recorded MIC with Candida albicans for `CCCCCCCCCCCCCCCC(=O)NCCCCN` here.
Resp: 8 µg/mL

Req: Enter recorded MIC with Candida albicans for `CCCCCCCCCCCCCC(=O)NCCCN` here.
Resp: 32 µg/mL

Req: Enter recorded MIC with Candida albicans for `CCCCCCCC/C=C\CCCCCCCC(=O)NCCN` here.
Resp: 128 µg/mL

Req: Enter recorded MIC with Candida albicans for `CCCCCCCC/C=C\CCCCCCCC(=O)NCCCCN` here.
Resp: 2 µg/mL

Req: Enter recorded MIC with Candida albicans for `CCCCCCCCCCCC(=O)NCCCCN` here.
Resp: 256 µg/mL

Req: Enter recorded MIC with Candida albicans for `CCCCCCCC/C=C\CCCCCCCC(=O)NCCCN` here.
Resp: 2 µg/mL

Req: Enter recorded MIC with Candida albicans for `CCCCCCCCCCCCCC(=O)NCCN` here.
Resp: 4 µg/mL

Req: Enter recorded MIC with Candida albicans for `CCCCCCCCCCCCCCCC(=O)NCCCN` here.
Resp: 64 µg/mL

Req: Enter recorded MIC with Candida albicans for `CCCCCCCCCCCCCC(=O)NCCCCN` here.
Resp: 16 µg/mL

Req: Enter recorded MIC with Candida albicans for `CCCCCCCCCCCC(=O)NCCN` here.
Resp: 128 µg/mL

----------
System: Staphylococcus aureus
assay.name: Bactericidal activity against methicillin-resistant Staphylococcus aureus clinical isolate 12 after 24 hrs
Type: functional
stated.conditions: isolate 12, 24 h
reported.metric: MBC (µg/mL)
Reply numerically in µg/mL, unit not repeated.

Req: Determine from records and report MBC for `O=C(N[C@H](CO)[C@H](O)c1ccc([N+](=O)[O-])cc1)C(Cl)Cl`
Resp: 64

Req: Determine from records and report MBC for `CN[C@H](CC(C)C)C(=O)N[C@H]1C(=O)N[C@@H](CC(N)=O)C(=O)N[C@H]2C(=O)N[C@H]3C(=O)N[C@H](C(=O)N[C@H](C(=O)O)c4cc(O)cc(O)c4-c4cc3ccc4O)[C@H](O)c3ccc(c(Cl)c3)Oc3cc2cc(c3O[C@@H]2O[C@H](CO)[C@@H](O)[C@H](O)[C@H]2O[C@H]2C[C@](C)(N)[C@H](O)[C@H](C)O2)Oc2ccc(cc2Cl)[C@H]1O`
Resp: 1

Req: Determine from records and report MBC for `CCCCCCCC/C=C\CCCCCCCC(=O)NCCCN`
Resp: 16

Data provenance is ChEMBL document CHEMBL3352328.
